# System: HLA-A*24
# test protocol: MHC binding assay, UV-ligand exchange with β2m ELISA, HLA-A*24 (Table 21)
# Parameters: species or system human
# reported conditions: binding to HLA-A*24 ranged by peptide exchange yield (UV-ligand exchange, β2m ELISA)
observable: Peptide exchange

substance: 185 (IYKVGAPTI; listed as Homo sapiens) [compound 185]
system under test: HLA-A*24
Peptide exchange: +++ (50%-75% = +++)
//
substance: 203 (FYSRLLQKF; listed as Homo sapiens) [compound 203]
system under test: HLA-A*24
Peptide exchange: +++ (50%-75% = +++)
//
substance: 287 (LYITEPKTI; listed as Homo sapiens) [compound 287]
system under test: HLA-A*24
Peptide exchange: +++ (50%-75% = +++)
//
substance: 177 (VYPWLGALL; listed as Homo sapiens) [compound 177]
system under test: HLA-A*24
Peptide exchange: ++++ (≧75% = ++++)
//
substance: 195 (TYSVSFPMF; listed as Homo sapiens) [compound 195]
system under test: HLA-A*24
Peptide exchange: ++++ (≧75% = ++++)

Task: What does the record list as Peptide exchange for 193 (RFHPTPLLL; listed as Homo sapiens) [compound 193] ?
Result: ++++ (≧75% = ++++)

Task: What would you report for 273 (TYIKPISKL; listed as Homo sapiens) [compound 273] ?
Result: +++ (50%-75% = +++)

Task: What would you report for 181 (LYLDIINLF; listed as Homo sapiens) [compound 181] ?
Result: ++++ (≧75% = ++++)

Task: What would you report for 228 (KYTSWYVAL; listed as Homo sapiens) [compound 228] ?
Result: ++++ (≧75% = ++++)

Task: What would you report for 208 (TYTQDFNKF; listed as Homo sapiens) [compound 208] ?
Result: +++ (50%-75% = +++)

Task: What would you report for 202 (VYWDSAGAAHF; listed as Homo sapiens) [compound 202] ?
Result: ++++ (≧75% = ++++)

Task: What would you report for 214 (LYLKLWNLI; listed as Homo sapiens) [compound 214] ?
Result: +++ (50%-75% = +++)

Task: What would you report for 284 (RYLNKAFHI; listed as Homo sapiens) [compound 284] ?
Result: +++ (50%-75% = +++)

Task: What would you report for 175 (YYEVHKELF; listed as Homo sapiens) [compound 175] ?
Result: ++++ (≧75% = ++++)

Task: What would you report for 183 (VFTSTARAF; listed as Homo sapiens) [compound 183] ?
Result: +++ (50%-75% = +++)

Task: What would you report for 200 (YYGPSLFLL; listed as Homo sapiens) [compound 200] ?
Result: +++ (50%-75% = +++)

Task: What would you report for 206 (EYQENFLSF; listed as Homo sapiens) [compound 206] ?
Result: +++ (50%-75% = +++)

Task: What would you report for 180 (IYDDSFIRPVTF; listed as Homo sapiens) [compound 180] ?
Result: +++ (50%-75% = +++)

Task: What would you report for 289 (KYPVEWAKF; listed as Homo sapiens) [compound 289] ?
Result: ++++ (≧75% = ++++)

Task: What would you report for 159 (LYNKGFIYL; listed as Homo sapiens) [compound 159] ?
Result: ++++ (≧75% = ++++)

Task: What would you report for 178 (IFIEVFSHF; listed as Homo sapiens) [compound 178] ?
Result: +++ (50%-75% = +++)

Task: What would you report for 274 (AYLHSHALI; listed as Homo sapiens) [compound 274] ?
Result: ++++ (≧75% = ++++)

Task: What would you report for 167 (NYINRILKL; listed as Homo sapiens) [compound 167] ?
Result: ++++ (≧75% = ++++)

Task: What would you report for 211 (YYLEVGKTLI; listed as Homo sapiens) [compound 211] ?
Result: ++++ (≧75% = ++++)

Task: What would you report for 267 (KYMVYPQTF; listed as Homo sapiens) [compound 267] ?
Result: ++++ (≧75% = ++++)

====

# Test system: HLA-A*02
# test protocol: MHC binding assay, UV-ligand exchange with β2m ELISA, HLA-A*02 (Table 20)
# Parameters: species or system human
# reported conditions: binding to HLA-A*02 ranged by peptide exchange yield (UV-ligand exchange, β2m ELISA)
observable: Peptide exchange

Solved cases (7 shown):
substance: 111 (AIVDLIHDI; listed as Homo sapiens) [compound 111]
Peptide exchange: ++ (20%-49% = ++)
//
substance: 132 (ILGEVLAQL; listed as Homo sapiens) [compound 132]
Peptide exchange: +++ (50%-75% = +++)
//
substance: 131 (VTSNSGILGV; listed as Homo sapiens) [compound 131]
Peptide exchange: +++ (50%-75% = +++)
//
substance: 134 (GLAVPTPSV; listed as Homo sapiens) [compound 134]
Peptide exchange: +++ (50%-75% = +++)
//
substance: 141 (FLDKVLVAA; listed as Homo sapiens) [compound 141]
Peptide exchange: +++ (50%-75% = +++)
//
substance: 80 (KLYEADFVL; listed as Homo sapiens) [compound 80]
Peptide exchange: ++ (20%-49% = ++)
//
substance: 59 (KLLDPQEFTL; listed as Homo sapiens) [compound 59]
Peptide exchange: +++ (50%-75% = +++)

Now let's try a different one.
Task: So what Peptide exchange did 54 (VLNPLITAV; listed as Homo sapiens) [compound 54] get with HLA-A*02?
Result: +++ (50%-75% = +++)

====

# System: HLA-A*02
# test protocol: MHC binding assay, UV-ligand exchange with β2m ELISA, HLA-A*02 (Table 20)
# Set-up: species or system human
# reported conditions: binding to HLA-A*02 ranged by peptide exchange yield (UV-ligand exchange, β2m ELISA)
observable: Peptide exchange

Solved cases (4 shown):
substance: 47 (ALLERGELFV; listed as Homo sapiens) [compound 47]
system under test: HLA-A*02
Peptide exchange: +++ (50%-75% = +++)

substance: 31 (TITETTVEV; listed as Homo sapiens) [compound 31]
system under test: HLA-A*02
Peptide exchange: +++ (50%-75% = +++)

substance: 118 (QLWQFLVTL; listed as Homo sapiens) [compound 118]
system under test: HLA-A*02
Peptide exchange: +++ (50%-75% = +++)

substance: 235 (KIIDFLSAL; listed as Homo sapiens) [compound 235]
system under test: HLA-A*02
Peptide exchange: +++ (50%-75% = +++)

Task: So what Peptide exchange did 19 (SISDNVWEV; listed as Homo sapiens) [compound 19] get with HLA-A*02?
Result: +++ (50%-75% = +++)

Task: What would you report for 36 (SLADTNSLAVV; listed as Homo sapiens) [compound 36] ?
Result: +++ (50%-75% = +++)

Task: What would you report for 256 (SLGEEQFSV; listed as Homo sapiens) [compound 256] ?
Result: ++ (20%-49% = ++)

Task: What would you report for 157 (TLTSLLAQA; listed as Homo sapiens) [compound 157] ?
Result: +++ (50%-75% = +++)

Task: What would you report for 58 (YLLPLLPAL; listed as Homo sapiens) [compound 58] ?
Result: +++ (50%-75% = +++)

Task: What would you report for 92 (GLLFSLRSV; listed as Homo sapiens) [compound 92] ?
Result: ++++ (≧75% = ++++)

Task: What would you report for 6 (ALFDSLRHV; listed as Homo sapiens) [compound 6] ?
Result: +++ (50%-75% = +++)

Task: What would you report for 143 (ALLPELREV; listed as Homo sapiens) [compound 143] ?
Result: +++ (50%-75% = +++)

Task: What would you report for 27 (RLMEENWNA; listed as Homo sapiens) [compound 27] ?
Result: +++ (50%-75% = +++)

Task: What would you report for 237 (ALAPHLDDA; listed as Homo sapiens) [compound 237] ?
Result: +++ (50%-75% = +++)

Task: What would you report for 151 (SVLDSTAKV; listed as Homo sapiens) [compound 151] ?
Result: ++ (20%-49% = ++)

Task: What would you report for 60 (ALFAPLVHL; listed as Homo sapiens) [compound 60] ?
Result: +++ (50%-75% = +++)

Task: What would you report for 155 (LLNPVVEFV; listed as Homo sapiens) [compound 155] ?
Result: +++ (50%-75% = +++)

Task: What would you report for 115 (SLDPDTLPAV; listed as Homo sapiens) [compound 115] ?
Result: ++ (20%-49% = ++)

Task: What would you report for 16 (YTLDIPVLFGV; listed as Homo sapiens) [compound 16] ?
Result: ++++ (≧75% = ++++)

Task: What would you report for 29 (YLLDPSITL; listed as Homo sapiens) [compound 29] ?
Result: +++ (50%-75% = +++)

Task: What would you report for 81 (NALDKVLSV; listed as Homo sapiens) [compound 81] ?
Result: +++ (50%-75% = +++)

Task: What would you report for 64 (SLFPDSLIV; listed as Homo sapiens) [compound 64] ?
Result: ++ (20%-49% = ++)

Task: What would you report for 89 (QLAPVFQRV; listed as Homo sapiens) [compound 89] ?
Result: ++ (20%-49% = ++)
